B1: F1*; the commonest letter at each place (parent)
chain: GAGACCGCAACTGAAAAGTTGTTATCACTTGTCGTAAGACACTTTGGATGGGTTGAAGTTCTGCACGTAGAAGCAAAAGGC

Variants of: B1
PROTOCOL_DETAILS: fraction ligated after 30 min (ligated reads / total reads); higher = more ligase activity
ASSAY_SETUP: with F1*sub RNA substrate (template-directed ligation), 42 °C
Response key: true (1) means fraction ligated >= 0.6; false (0) means fraction ligated < 0.6.

• A27T G47T = false (0)
• T23A A24T = true (1)
• T30C T32G A39C A41G = true (1)
• A37T T45C = true (1)
• G31A A48G = false (0)
• G31A A37G = true (1)
• T23C A36G = true (1)
• A27C T29C = true (1)
• T25A T32G = false (0)
• G34C G50T = true (1)
• C33G G50A = false (0)
• T25C T30A = true (1)
• A24G T45A = false (0)
• T35A C42A = true (1)
• C26T T29C = true (1)
• A37T T45G = false (0)
• T29A A37C = true (1)
• A24G G47T = false (0)
• G38T A48C = true (1)
• A27T A48C = true (1)
• T30C T35C = true (1)
• A41C A56C = false (0)
• T23C C40G = true (1)
• G38A A57C = true (1)
• G31A G50A = false (0)
• C26A C42T = true (1)
• T35C G47C = false (0)
• A39C G47A = true (1)
• T23C G38A = true (1)
• C42T T49A = true (1)
• C28G T29A = true (1)
• C28G T32A = true (1)
• G31T T43C = true (1)
• A37G T43C = true (1)
• T32G G55T = true (1)
• T44A A56T = true (1)
• T32G G50A = false (0)
• A27T C28A = true (1)
• T25G G31A = false (0)
• G47T A56T = false (0)
• T35C T44A = true (1)
• G47T A57T = false (0)
• C28A G50T = false (0)
• G31C T49G = false (0)
• C28G T35A = true (1)
